# targetUnderTest: T1, human CD39 on cells (human, UniProt P49961 1-510)
# T1 construct: One molecule for all cells that carry human CD39; the cell is named under assay; also called hCD39; cellular CD39
# T1 sequence: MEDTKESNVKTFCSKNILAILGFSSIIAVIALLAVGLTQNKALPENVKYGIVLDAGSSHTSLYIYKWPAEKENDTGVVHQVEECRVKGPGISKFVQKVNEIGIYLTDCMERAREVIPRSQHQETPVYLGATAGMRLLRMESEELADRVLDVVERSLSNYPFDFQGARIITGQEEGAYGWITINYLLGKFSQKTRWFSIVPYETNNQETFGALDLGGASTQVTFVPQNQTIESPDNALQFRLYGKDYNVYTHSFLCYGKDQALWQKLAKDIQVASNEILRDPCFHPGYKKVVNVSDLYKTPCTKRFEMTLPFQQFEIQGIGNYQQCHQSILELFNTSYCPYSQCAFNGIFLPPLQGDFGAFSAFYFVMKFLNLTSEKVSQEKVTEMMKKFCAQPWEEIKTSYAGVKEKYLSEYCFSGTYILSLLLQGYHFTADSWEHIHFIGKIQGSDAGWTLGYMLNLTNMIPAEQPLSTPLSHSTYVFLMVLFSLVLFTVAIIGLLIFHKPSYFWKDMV
# procedureText: flow cytometry, 100 nM IgG, hCD39-CHO cells; MFI ratio to parental CHO
Cell Binding (FOB) vs 1000 FOB: at or above is YES, below is NO.

Challenge: Is Cell Binding (FOB) at least 1000 FOB? Consider 27597 (antibody, V domains shown) VH: QVQLVQSGAEVKKPGSSVKVSCKASGGTFSSYAISWVRQAPGQGLEWMGSIIPIFGTANYAQKFQGRVTITADESTSTAYMELSSLRSEDTAVYYCAREGRGYDSSRYYKFWFDPWGQGTLVTVSS VL: EIVLTQSPATLSLSPGERATLSCRASQSVSSYLAWYQQKPGQAPRLLIYDASNRATGIPARFSGSGSGTDFTLTISSLEPEDFAVYYCQQFVLWPRTFGGGTKVEIKR
Response given: NO

Challenge: Further, for 31414 (antibody, human IgG4 S228P, kappa, V domains shown) VH: QVQLVQSGAEVKKPGASVKVSCKASGYTFKSYEMHWVRQAPGQGLEWMGRINPSVGSTWYAQKFQGRVTMTRDTSTSTVYMELSSLRSEDTAVYYCARGKREGGTEYLRNWGQGTLVTVSS VL: EIVLTQSPGTLSLSPGERATLSCRASQSVSSSYLAWYQQKPGQAPRLLIYGASSRATGIPDRFSGSGSGTDFTLTISRLEPEDFAVYYCQQYHSYITFGGGTKVEIKR ?
Response given: YES

Challenge: Further, for 31415 (antibody, V domains shown) VH: QVQLVQSGAEVKKPGASVKVSCKASGYTFTSYQMHWVRQAPGQGLEWMGRINPSGGSTWYAQKFQGRVTMTRDTSTSTVYMELSSLRSEDTAVYYCARGKREGGTEYLRSWGQGTLVTVSS VL: EIVLTQSPGTLSLSPGERATLSCRASQSVSSSYLAWYQQKPGQAPRLLIYGASSRATGIPDRFSGSGSGTDFTLTISRLEPEDFAVYYCQQYHSYITFGGGTKVEIKR ?
Response given: YES

Challenge: Further, for 27587 (antibody, V domains shown) VH: QVQLVQSGAEVKKPGSSVKVSCKASGGTFSSYAISWVRQAPGQGLEWMGSIIPIFGTANYAQKFQGRVTITADESTSTAYMELSSLRSEDTAVYYCARESGGYRDHKLDVWGQGTMVTVSS VL: EIVLTQSPATLSLSPGERATLSCRASQSVSSYLAWYQQKPGQAPRLLIYDASKRATGIPARFSGSGSGTDFTLTISSLEPEDFAVYYCQQDVLWPLTFGGGTKVEIKR ?
Response given: YES

Challenge: Further, for 27535 (antibody, V domains shown) VH: QVQLVQSGAEVKKPGSSVKVSCKASGGTFSSYAISWVRQAPGQGLEWMGGIIPIFGTANYAQKFQGRVTITADESTSTAYMELSSLRSEDTAVYYCARDTPRWRYHYFDYWGQGTLVTVSS VL: EIVLTQSPATLSLSPGERATLSCRASQSVSSYLAWYQQKPGQAPRLLIYDASKRATGIPARFSGSGSGTDFTLTISSLEPEDFAVYYCQQVLNYPLTFGGGTKVEIKR ?
Response given: NO

Challenge: Further, for 27571 (antibody, V domains shown) VH: QVQLVQSGAEVKKPGSSVKASCKASGGTFSSYAISWVRQAPGQGLEWMGSIIPIFGTANYAQKFRGRVTITADESTSTTYMELSSLRSEDTAVYYCARESGGYRDHRLDVWGQGTMVTVSS VL: EIVMTQSPATLSVSPGERATLSCRASQSVGSNLAWYQQKPGQAPRLLIYGASTRATGIPARFSGSGSGTEFTLTISSLQSEDFAVYYCQQYLIWPLTFGGGTKVEIK ?
Response given: YES

Challenge: Further, for 31430 (antibody, V domains shown) VH: QVQLVQSGAEVKKPGASVKVSCKASGYTFKSYEMHWVRQAPGQGLEWMGRINPSGGSTWYAQKFQGRVTMTRDTSTSTVYMELSSLRSEDTAVYYCARGKREGGTEYLRHWGQGTLVTVSS VL: EIVLTQSPGTLSLSPGERATLSCEASQSVSYSYLAWYQQKPGQAPRLLIYGASSRANGIPDRFSGSGSGTDFTLTISRLEPEDFAVYYCQQYHSALTFGGGTKVEIKR ?
Response given: YES

Challenge: Further, for 31431 (antibody, V domains shown) VH: QVQLVQSGAEVKKPGASVKVSCKASGYTFTSYQMHWVRQAPGQGLEWMGRINPSGGSTWYAQKFQGRVTMTRDTSTSTVYMELSSLRSEDTAVYYCARGKREGGTEYLRHWGQGTLVTVSS VL: EIVLTQSPGTLSLSPGERATLSCRASQSVASSYLAWYQQKPGQAPRLLIYGASNRHTGIPDRFSGSGSGTDFTLTISRLEPEDFAVYYCQQYHGGITFGGGTKVEIK ?
Response given: YES

Challenge: Further, for 31421 (antibody, V domains shown) VH: QVQLVQSGAEVKKPGASVKVSCKASGYTFFSYYMYWVRQAPGQGLEWMGVINPLGGGTSYAQKFQGRVTMTRDTSTSTVYMELSSLRSEDTAVYYCARGKREGGTEYLRHWGQGTLVTVSS VL: EIVLTQSPGTLSLSPGERATLSCKASESVSSSYLAWYQQKPGQAPRLLIYYASSRATGIPDRFSGSGSGTDFTLTISRLEPEDFAVYYCQQYHRRITFGGGTKVEIK ?
Response given: YES

Challenge: Further, for 27579 (antibody, V domains shown) VH: QVQLVQSGAEVKEPGASVKVSCKAPGYTFTSYYMHWVRQAPGQGLEWMGVINPSGGSTSYAQKFQGRVTMTRDTSTSTVYMELSSLRSEDTAVYYCARGKREGGTEYLRHWGQGTLVTVSS VL: EIVLTQSPGTLSLSPGERATLSCRASQSVSSSYLAWYQQKPGQAPRLLIYGASSRATGIPDRFSGSGSGTDFTLTISRLEPEDFAVYYCQQYHSYITFGGGTKVEIK ?
Response given: YES
